Experimental System: T1, 4H710-AA
T1 chain: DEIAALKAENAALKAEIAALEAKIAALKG
Experiment: two-hybrid library CCmax;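 note: natural log of median RNA to DNA barcode read ratio; higher means stronger binding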
Test Context: mean of both orientations
Property Label: interaction score

# interaction score lookup, item DEIAALKAEIAALKAKNAALEAKIAALEG [4H629-AA]
-0.399

# interaction score lookup, item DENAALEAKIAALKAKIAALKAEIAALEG [4H1385-AA]
-0.564

# interaction score lookup, item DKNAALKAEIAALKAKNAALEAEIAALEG [4H3697-AA]
-1.75

# interaction score lookup, item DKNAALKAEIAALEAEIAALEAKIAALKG [4H3590-AA]
-1.14

# interaction score lookup, item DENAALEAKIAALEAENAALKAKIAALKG [4H1310-AA]
-0.684

# interaction score lookup, item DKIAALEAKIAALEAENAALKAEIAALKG [4H2330-AA]
-1.49

# interaction score lookup, item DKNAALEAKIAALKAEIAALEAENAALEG [4H3395-AA]
-1.32

The reported measurements were obtained from paper PMC10397247.
